Consider the following molecules and their measured IC50 readings.
# System: PC-3
# protocolDetails: Antiproliferative activity against human PC3 cells after 120 hrs by MTT assay
# Type: functional, cell-based
# testParameters: PC-3, 120 h
Please respond with the number in µM and leave the unit unwritten.

Input: Please tell me: IC50 of COc1cc2nc(N3CCN(C(=O)C4COc5ccccc5O4)CC3)nc(N)c2cc1OC (stereo not drawn) , system PC-3?
Output: 12.1

Input: Record COc1cc2nc(N3CCC[C@H](NC4=CC(=O)c5ccccc5C4=O)C3)nc(N)c2cc1OC : what is its IC50 with PC-3?
Output: 18.2

Shifting focus to the molecule that follows.
Input: Item: COc1cc2nc(N3CCC[C@@H](NC4=CC(=O)c5ccccc5C4=O)C3)nc(N)c2cc1OC Test system: PC-3 Read-out: IC50 Value: ?
Output: 18.6

----------
Record: pKi reported on Alpha-1D adrenergic receptor (Homo sapiens, UniProt P25100).
Sequence (P25100 whole entry): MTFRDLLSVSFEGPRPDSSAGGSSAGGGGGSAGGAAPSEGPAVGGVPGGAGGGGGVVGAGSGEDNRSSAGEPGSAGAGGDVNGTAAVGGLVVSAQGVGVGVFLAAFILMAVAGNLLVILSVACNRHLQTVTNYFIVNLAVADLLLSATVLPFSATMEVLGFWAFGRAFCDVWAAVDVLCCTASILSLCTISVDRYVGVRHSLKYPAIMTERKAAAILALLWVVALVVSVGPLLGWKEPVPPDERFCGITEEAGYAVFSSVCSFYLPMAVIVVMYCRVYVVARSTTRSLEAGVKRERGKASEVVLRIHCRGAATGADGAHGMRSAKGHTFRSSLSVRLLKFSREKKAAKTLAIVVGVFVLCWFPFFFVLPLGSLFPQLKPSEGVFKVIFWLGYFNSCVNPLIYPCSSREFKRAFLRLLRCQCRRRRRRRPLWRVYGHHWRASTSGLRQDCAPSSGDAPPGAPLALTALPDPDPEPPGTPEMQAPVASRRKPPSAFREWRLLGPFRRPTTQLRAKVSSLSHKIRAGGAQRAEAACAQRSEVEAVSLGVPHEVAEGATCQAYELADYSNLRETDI
# pKi = -log10(concentration in molar units)

Here are 4 molecules together with their reported answers.
Input: State the recorded pKi for this entry: COc1cc2nc(N3CCC[C@H](NC(=O)[C@H]4COc5ccccc5O4)C3)nc(N)c2cc1OC
Output: 7.31

Input: Param item = COc1cc2nc(N3CCC[C@@H](NC(=O)c4ccco4)C3)nc(N)c2cc1OC ; retrieve measured pKi.
Output: 7.43

Input: Value lookup for pKi; key = COc1cc2nc(N3CCC[C@H](NC(=O)c4ccco4)C3)nc(N)c2cc1OC
Output: 9.48

Input: I am curious: what pKi value has been reported for COc1cc2nc(N3CCC[C@H](N)C3)nc(N)c2cc1OC ?
Output: 7.55

---
Input: # get_value(readout='pKi', item= COc1cc2nc(N3CCC[C@@H](NC(=O)[C@H]4COc5ccccc5O4)C3)nc(N)c2cc1OC )
Output: 6.53

Input: Dear colleague, I am looking for the recorded pKi of the following molecule: COc1cc2nc(N3CCC[C@@H](NC4=CC(=O)c5ccccc5C4=O)C3)nc(N)c2cc1OC
Output: 7.47

----------
Sequence of the target: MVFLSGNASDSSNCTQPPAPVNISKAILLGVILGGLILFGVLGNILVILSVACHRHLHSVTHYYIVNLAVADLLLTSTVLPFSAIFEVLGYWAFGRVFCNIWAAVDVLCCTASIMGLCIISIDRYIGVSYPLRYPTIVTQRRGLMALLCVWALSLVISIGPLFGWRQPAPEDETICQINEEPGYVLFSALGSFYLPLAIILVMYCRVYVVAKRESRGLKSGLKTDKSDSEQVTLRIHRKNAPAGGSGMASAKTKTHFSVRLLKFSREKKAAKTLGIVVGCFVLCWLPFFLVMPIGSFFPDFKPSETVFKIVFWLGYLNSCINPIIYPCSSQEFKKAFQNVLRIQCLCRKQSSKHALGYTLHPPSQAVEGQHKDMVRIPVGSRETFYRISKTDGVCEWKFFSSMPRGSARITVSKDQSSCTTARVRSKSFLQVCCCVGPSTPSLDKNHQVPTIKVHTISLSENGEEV
Collected Ki values appear next to each entry.
Give me the value, and tack the unit on after it.

Input: // returns reported Ki for input COc1cc2nc(N3CCC[C@H](NC(=O)[C@H]4COc5ccccc5O4)C3)nc(N)c2cc1OC
Output: 18.2 nM

Now examine the next entry.
Input: Would you kindly share the measured Ki for COc1cc2nc(N3CCC[C@H](N)C3)nc(N)c2cc1OC ?
Output: 191 nM

----------
# System: Panel NCI-60 (60 carcinoma cell lines)
# protocolDetails: Antiproliferative activity against human NCI60 cells at 10 uM after 48 hrs by SRB assay
# Type: functional, cell-based
Activity calls are given as the source filed them. The rule behind the calls is not given here.
Lab note: assign the record to one of YES for active, NO for inactive

Input: Assay outcome for COc1cc2nc(N3CCC[C@H](NC(=O)[C@H]4COc5ccccc5O4)C3)nc(N)c2cc1OC : what was it?
Output: NO

Input: Dear colleague, could you share the recorded outcome for COc1cc2nc(N3CCC[C@H](NC4=CC(=O)c5ccccc5C4=O)C3)nc(N)c2cc1OC when you have a moment?
Output: YES

Input: What did this assay record as the result for COc1cc2nc(N3CCC[C@H](NC(=O)c4ccco4)C3)nc(N)c2cc1OC ?
Output: NO

Input: Lab log entry: COc1cc2nc(N3CCC[C@H](N)C3)nc(N)c2cc1OC — outcome as called in the assay?
Output: NO

Input: Hello, I am checking results. What call was entered for COc1cc2nc(N3CCC[C@H](NC(=O)[C@@H]4COc5ccccc5O4)C3)nc(N)c2cc1OC ?
Output: NO

Input: # lookup: test call for COc1cc2nc(N3CCC[C@@H](NC4=CC(=O)c5ccccc5C4=O)C3)nc(N)c2cc1OC
Output: YES

Turning to the following compound.
Input: # lookup: test call for COc1cc2nc(N3CCC[C@@H](NC(=O)c4ccco4)C3)nc(N)c2cc1OC
Output: NO

----------
# protocolDetails: Selectivity index, ratio of cytotoxic concentration for HGF cells to IC50 for human LNCAP cells
# Type: toxicity
# testParameters: HGF cells and LNCAP cells, read-out: Selectivity Index
measurementType: selectivity ratio
Give only the figure.

Input: Any idea what selectivity ratio was measured for COc1cc2nc(N3CCC[C@H](NC4=CC(=O)c5ccccc5C4=O)C3)nc(N)c2cc1OC ?
Output: 4.7

----------
Target chain: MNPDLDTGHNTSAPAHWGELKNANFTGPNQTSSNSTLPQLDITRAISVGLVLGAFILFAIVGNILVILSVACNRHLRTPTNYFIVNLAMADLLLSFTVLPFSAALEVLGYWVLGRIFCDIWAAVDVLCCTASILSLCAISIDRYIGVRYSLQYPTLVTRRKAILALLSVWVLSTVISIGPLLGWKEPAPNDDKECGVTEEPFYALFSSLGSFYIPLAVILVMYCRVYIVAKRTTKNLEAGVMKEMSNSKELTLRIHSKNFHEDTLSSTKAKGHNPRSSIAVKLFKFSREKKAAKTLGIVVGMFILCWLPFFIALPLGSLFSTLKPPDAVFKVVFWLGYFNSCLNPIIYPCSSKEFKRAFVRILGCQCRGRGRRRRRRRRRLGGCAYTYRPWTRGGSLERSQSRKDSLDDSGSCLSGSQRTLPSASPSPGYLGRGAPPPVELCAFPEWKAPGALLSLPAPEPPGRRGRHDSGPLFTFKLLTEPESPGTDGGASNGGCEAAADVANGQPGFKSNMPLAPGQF
measurementType: pKi
Reminder that pKi is minus the log10 of a molar concentration.

Take a look at these entries with their results.
Input: Item under review: COc1cc2nc(N3CCC[C@@H](N)C3)nc(N)c2cc1OC . Reported pKi?
Output: 6.75

Input: Reported pKi for COc1cc2nc(N3CCC[C@@H](NC(=O)[C@H]4COc5ccccc5O4)C3)nc(N)c2cc1OC : what is it?
Output: 7.33

Input: Field request: pKi | item: COc1cc2nc(N3CCC[C@H](NC4=CC(=O)c5ccccc5C4=O)C3)nc(N)c2cc1OC
Output: 9.28

Next:
Input: Query (compound): COc1cc2nc(N3CCC[C@H](NC(=O)c4ccco4)C3)nc(N)c2cc1OC ; field requested: pKi
Output: 9.55

Input: Fill in: pKi of COc1cc2nc(N3CCC[C@@H](NC4=CC(=O)c5ccccc5C4=O)C3)nc(N)c2cc1OC is ___
Output: 7.60

----------
# System: DU-145
# protocolDetails: Antiproliferative activity against human DU145 cells after 120 hrs by MTT assay
# Type: functional, cell-based
# testParameters: DU-145, 120 h
Examples of compounds with documented IC50 follow.
Please respond with the number in µM and leave the unit unwritten.

Input: IC50 for COc1cc2nc(N3CCN(C(=O)C4COc5ccccc5O4)CC3)nc(N)c2cc1OC (stereo not drawn) ?
Output: 30.6

Input: Item COc1cc2nc(N3CCC[C@H](NC4=CC(=O)c5ccccc5C4=O)C3)nc(N)c2cc1OC has what recorded IC50?
Output: 18.5

Input: Returns the measured IC50 for the input compound. Input: COc1cc2nc(N3CCC[C@@H](NC4=CC(=O)c5ccccc5C4=O)C3)nc(N)c2cc1OC
Output: 17.8
